test system: MS2 coat protein; assay: apparent KD of MS2 coat protein; designed switch direction (-1 OFF switch, 1 ON switch): -1; higher = weaker reporter binding; conditions: input ligand: microRNA oligo, concentration not stated
Decide by apparent KD of MS2 coat protein: equal to or exceeding 200 nM means Satisfied, less means Not satisfied.

biopolymer sequence	target desc	label value
UUAAUUAAUUUAAUAUAAGAUCACAUGAGGAUCACCCAUGUAUAGGAUAUCAGCUCGUUUAGAGCUGAGAAGGAUACAUAAUAU [ExNG3/2-B2] (Eterna round: R96, puzzle: Exclusion NG 3)	MS2 coat protein	Satisfied
AGGCCCGAUGGAGGAUAUGUAAGUAAUUGAGAUACUUCAUGUCACAUGAGGAUCACCCAUGUACGGCAGAAGGCCGACGGAGCC [Raanoner] (Eterna round: R96, puzzle: Exclusion NG 2)	MS2 coat protein	Not satisfied
GUUUUAUAUGAAGGAUAUACUUAACAUGAGGAUCACCCAUGUGGUGUUGUGAGUGAGUGAGUUUAGUAGAAGGUCAAGUAUUUU [JMF's solution 56] (Eterna round: R96, puzzle: Exclusion NG 2)	MS2 coat protein	Satisfied
AAUGAUUGACGAGGAUAUUGUGGUGAAACACGACGAGAAGGCGUAUGUCACAUGAGGAUCACCCAUGUGAACUUUGUGGAUAUA [Ex NG1 #70] (Eterna round: R96, puzzle: Exclusion NG 1)	MS2 coat protein	Not satisfied

Please look at the following sequence next.
API: above_or_equal(metric=apparent KD of MS2 coat protein, cutoff=200 nM) for item CCUGCGGACAAAGGAUAUUGCGGUGGCCGGCUCGGCGUACCGAGCCUACAUGAGGAUCACCCAUGUAAGAAGGUUGUCGUUGGA [Mat - Exclusion NG 2 - Mod of JL - D71] (Eterna round: R96, puzzle: Exclusion NG 2)
Not satisfied
